# System: GmolPBP1 (Grapholita molesta)
# Sequence (A0A2R4SBD6 entry or part of it): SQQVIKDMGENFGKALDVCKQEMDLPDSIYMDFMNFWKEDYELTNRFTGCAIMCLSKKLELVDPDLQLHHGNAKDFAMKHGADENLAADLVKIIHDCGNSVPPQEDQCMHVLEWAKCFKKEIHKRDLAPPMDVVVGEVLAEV
# Measurement Description: Fluorescence competitive binding assay with 1-NPN as probe
# Run Parameters: displacement of 1-NPN, ligands 1 to 10 μM
Readout Type: binding affinity to GmolPBP1 (in words)

CCC/C=C\CCCCCCCO [(Z)-8-dodecenyl alcohol] : strong affinity
C/C=C/C=C/CCCCCCCO [Codlemone, E, E-8, 10-Dodecadienol] : strong affinity
CCCCCCCCCCCCO [1-dodecanol] : strong affinity

###

Ki, GmolPBP1 (Grapholita molesta, UniProt A0A2R4SBD6), per-entry values.
Just the number please, in nM, no unit attached.

CCC/C=C\CCCCCCCO [(Z)-8-dodecenyl alcohol] : 1730
C/C=C/C=C/CCCCCCCO : 1880

// next item, Ki requested
Entry CCCCCCCCCCCCO : reported Ki = ? 2250
